B1: NP_009172.2 (parent)
chain: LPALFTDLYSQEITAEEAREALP

Variants of: B1
Test: protein stability index of a GFP-peptide fusion (GPS, HEK-293T) (PSI 1-6); higher = more stable;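 also: lentivirally expressed fusion library, cells FACS-sorted into six equal-sized GFP/DsRed ratio bins, PSI computed from sequencing read fractions per bin weighted by bin number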
Conditions: c terminus: native
Given measured protein stability index, output 1 if it is greater than or equal to 3 and 0 if not.

Take a look at these entries with their results.
LPALFTDLYSQEITAEEAREASP
1
LPALFTDLYSQEITAEEAREHLP
0
LPALQTDLYSQEITAEEAREALP
1
LPALFTDLYSQENTAEEAREALP
1
LPALFTDLYSQEITAEEARKALP
0
LPALFTDLYSQERTAEEAREALP
0
LPFLFTDLYSQEITAEEAREALP
0
LPALFTDLYSQEITACEAREALP
0

Here is the next item to consider.
API: above_or_equal(metric=protein stability index, cutoff=3) for item "LPALFTPLYSQEITAEEAREALP"
1
